# ASSAYED_SYSTEM: Cathepsin S (Homo sapiens, UniProt P25774)
# Sequence (P25774 115-331): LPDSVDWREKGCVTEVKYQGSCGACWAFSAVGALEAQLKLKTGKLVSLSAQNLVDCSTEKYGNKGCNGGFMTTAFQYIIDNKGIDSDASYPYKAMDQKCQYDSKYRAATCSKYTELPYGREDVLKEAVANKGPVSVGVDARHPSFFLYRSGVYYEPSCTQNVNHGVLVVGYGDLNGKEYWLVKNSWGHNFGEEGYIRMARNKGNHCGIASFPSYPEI
# TEST_DETAILS: Selectivity assay, cathepsin S
# Type: biochemical
# CONDITION_SET: pH 7.2
ENDPOINT_LABEL: IC50 (µM)
Reply numerically in µM, unit not repeated.

Prompt: Provide IC50, tested on Cathepsin S (Homo sapiens, UniProt P25774), for CCCNC(=O)[C@H]1O[C@@H]1C(=O)N[C@H](C(=O)N1CCC[C@H]1C(=O)OC)[C@@H](C)CC [CA-074Me] .
Response: 3.8

---

This listing pairs compounds with measured IC50.
# ASSAYED_SYSTEM: UniProt:P53634
# Sequence (P53634 25-134 limits assumed): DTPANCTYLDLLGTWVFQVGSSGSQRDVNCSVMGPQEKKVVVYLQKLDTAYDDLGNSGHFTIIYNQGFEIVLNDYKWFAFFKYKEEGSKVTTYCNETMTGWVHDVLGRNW
# Sequence (P53634 231-394 limits assumed): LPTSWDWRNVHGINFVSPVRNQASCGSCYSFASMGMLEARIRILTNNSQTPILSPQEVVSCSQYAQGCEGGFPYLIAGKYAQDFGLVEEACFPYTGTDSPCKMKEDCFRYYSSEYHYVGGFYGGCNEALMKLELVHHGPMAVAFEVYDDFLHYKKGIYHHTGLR
# Sequence (P53634 395-463 limits assumed): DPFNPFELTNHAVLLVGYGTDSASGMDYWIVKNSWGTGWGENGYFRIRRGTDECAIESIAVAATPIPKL
# TEST_DETAILS: Selectivity assay, cathepsin C
# Assay type: biochemical
# CONDITION_SET: pH 5.5

COMPOUND	MEASURED_VALUE
CCCNC(=O)[C@H]1O[C@@H]1C(=O)N[C@H](C(=O)N1CCC[C@H]1C(=O)O)[C@@H](C)CC (relative stereo) [CA-074]	> 16 µM

Prompt: System UniProt:P53634. Read-out IC50. Item CCCNC(=O)[C@H]1O[C@@H]1C(=O)N[C@H](C(=O)N1CCC[C@H]1C(=O)OC)[C@@H](C)CC [CA-074Me] . Report value.
Response: > 16 µM

---

In this section we review reported pIC50 values for a set of compounds.
# ASSAYED_SYSTEM: Cathepsin V (Homo sapiens)
# Sequence (O60911 114-334): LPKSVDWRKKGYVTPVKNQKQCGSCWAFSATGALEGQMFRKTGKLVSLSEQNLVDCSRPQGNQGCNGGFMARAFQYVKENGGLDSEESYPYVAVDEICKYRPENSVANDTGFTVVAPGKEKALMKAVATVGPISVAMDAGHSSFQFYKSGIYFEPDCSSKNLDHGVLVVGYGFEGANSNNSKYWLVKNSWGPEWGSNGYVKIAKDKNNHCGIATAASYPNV
# TEST_DETAILS: Selectivity assay, cathepsin V
# Assay type: biochemical
# CONDITION_SET: pH 5.5
pIC50: −log10 of the molar value.

Prompt: Give the observed pIC50 of CCCNC(=O)[C@H]1O[C@@H]1C(=O)N[C@H](C(=O)N1CCC[C@H]1C(=O)O)[C@@H](C)CC (relative stereo) [CA-074] for Cathepsin V (Homo sapiens).
Response: < 4.80

Prompt: Please indicate recorded pIC50 of CCCNC(=O)[C@H]1O[C@@H]1C(=O)N[C@H](C(=O)N1CCC[C@H]1C(=O)OC)[C@@H](C)CC [CA-074Me] measured with Cathepsin V (Homo sapiens).
Response: < 4.80

---

# ASSAYED_SYSTEM: Cathepsin L (Homo sapiens)
# Sequence (P07711 114-333): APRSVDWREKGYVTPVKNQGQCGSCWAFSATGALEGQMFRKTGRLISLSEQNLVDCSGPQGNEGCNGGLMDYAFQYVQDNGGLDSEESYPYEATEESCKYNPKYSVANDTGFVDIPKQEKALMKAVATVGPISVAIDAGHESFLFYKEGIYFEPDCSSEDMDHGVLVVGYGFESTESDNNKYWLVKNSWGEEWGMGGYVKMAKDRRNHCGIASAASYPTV
# TEST_DETAILS: Selectivity assay, cathepsin L
# Assay type: biochemical
# CONDITION_SET: pH 4.6
pIC50: −log10 of the molar value.
ENDPOINT_LABEL: pIC50

Prompt: Recall and state the measured pIC50 for CCCNC(=O)[C@H]1O[C@@H]1C(=O)N[C@H](C(=O)N1CCC[C@H]1C(=O)OC)[C@@H](C)CC [CA-074Me] .
Response: < 4.80

---

# ASSAYED_SYSTEM: cathepsin B (Homo sapiens, UniProt P07858)
# TEST_DETAILS: Cathepsin B activity assay with Z-Phe-Arg-AMC, inhibition kinetics
# Assay type: biochemical
# CONDITION_SET: pH 4.6; Z-Phe-Arg-AMC substrate; no preincubation
ENDPOINT_LABEL: IC50 (µM)
Please reply with the bare figure in µM and do not write the unit itself.

Prompt: Identify measured IC50 associated with CCCNC(=O)[C@H]1O[C@@H]1C(=O)N[C@H](C(=O)N1CCC[C@H]1C(=O)OC)[C@@H](C)CC [CA-074Me]
Response: 8.97

---

# ASSAYED_SYSTEM: Cathepsin H (Homo sapiens)
# Sequence (P09668 116-335 limits assumed, other chains not shown): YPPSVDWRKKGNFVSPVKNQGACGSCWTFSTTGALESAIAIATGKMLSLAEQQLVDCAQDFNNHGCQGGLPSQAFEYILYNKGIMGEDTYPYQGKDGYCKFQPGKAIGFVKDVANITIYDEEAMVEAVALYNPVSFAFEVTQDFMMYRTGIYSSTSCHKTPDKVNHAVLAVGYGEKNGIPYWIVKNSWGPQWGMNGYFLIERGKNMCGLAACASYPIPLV
# TEST_DETAILS: Selectivity assay, cathepsin H
# Type: biochemical
# CONDITION_SET: pH 5.5
ENDPOINT_LABEL: IC50

Prompt: Supply measured IC50 of CCCNC(=O)[C@H]1O[C@@H]1C(=O)N[C@H](C(=O)N1CCC[C@H]1C(=O)OC)[C@@H](C)CC [CA-074Me] in your reply.
Response: > 16 µM
